assay: Antiproliferative activity against human ES2 cells after 48 hrs by SRB assay; assay type: functional, cell-based; conditions: ES-2, 48 h
pIC50: −log10 of the molar value.
Let's look at some molecules and their measured pIC50.

# molecule, pIC50
data = [
    ("C=C(C)C1CC[C@H]2[C@@H]3CC[C@H]([C@H](C)CCC(=O)N4CCN(C(C)C)CC4)[C@@]3(C)CC[C@@H]2[C@@]1(C)CCC(=O)N1CCN(C(C)C)CC1 (stereo partly specified)", 5.18),
    ("C=C(C)C1CC[C@H]2[C@@H]3CC[C@H]([C@H](C)CCC(=O)n4cccn4)[C@@]3(C)CC[C@@H]2[C@@]1(C)CCC(=O)n1cccn1 (stereo partly specified)", "< 4.10"),
    ("C=C(C)C1CC[C@H]2[C@@H]3CC[C@H]([C@H](C)CCC(=O)N4CCN(CC)CC4)[C@@]3(C)CC[C@@H]2[C@@]1(C)CCC(=O)N1CCN(CC)CC1 (stereo partly specified)", 4.90),
    ("C=C(C)C1CC[C@H]2[C@@H]3CC[C@H]([C@H](C)CCC(=O)NC(C)C)[C@@]3(C)CC[C@@H]2[C@@]1(C)CCC(=O)NC(C)C (stereo partly specified)", "< 4.10"),
    ("C[C@H](CCC(=O)O)[C@H]1CC[C@H]2[C@@H]3C[C@H](O)[C@@H]4C[C@H](O)CC[C@]4(C)[C@H]3CC[C@]12C", "< 4.10"),
    ("C[C@H](CCC(=O)O)[C@H]1CC[C@H]2[C@@H]3CC[C@@H]4C[C@H](O)CC[C@]4(C)[C@H]3C[C@H](O)[C@]12C", "< 4.10"),
    ("C=C(C)C1CC[C@H]2[C@@H]3CC[C@H]([C@H](C)CCC(=O)N4CCN(C5CCCCC5)CC4)[C@@]3(C)CC[C@@H]2[C@@]1(C)CCC(=O)N1CCN(C2CCCCC2)CC1 (stereo partly specified)", 4.77),
    ("C=C(C)C1CC[C@H]2[C@@H]3CC[C@H]([C@H](C)CCCN4CCN(C)CC4)[C@@]3(C)CC[C@@H]2[C@@]1(C)CCCN1CCN(C)CC1 (stereo partly specified)", "< 4.10"),
    ("C=C(C)C1CC[C@H]2[C@@H]3CC[C@H]([C@H](C)CCC(=O)N4CCN(c5ccccc5)CC4)[C@@]3(C)CC[C@@H]2[C@@]1(C)CCC(=O)N1CCN(c2ccccc2)CC1 (stereo partly specified)", "< 4.10"),
    ("C=C(C)C1CC[C@H]2[C@@H]3CC[C@H]([C@H](C)CCC(=O)NCc4ccccc4)[C@@]3(C)CC[C@@H]2[C@@]1(C)CCC(=O)NCc1ccccc1 (stereo partly specified)", "< 4.10"),
    ("C=C(C)C1CC[C@H]2[C@@H]3CC[C@H]([C@H](C)CCC(=O)N4CCNCC4)[C@@]3(C)CC[C@@H]2[C@@]1(C)CCC(=O)N1CCNCC1 (stereo partly specified)", 5.41),
]
